// apparent KD of K4 kissing-loop reporter lookup, one value per entry
Tested on: K4 kissing-loop RNA reporter;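 further: bound reporter read as fluorescence of individual clusters on recovered sequencing chips by microscopy, with normalized cluster intensities fitted with a binding model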
Assay: apparent KD of K4 kissing-loop reporter; higher = weaker reporter binding
Conditions: Eterna round: R107; input ligand: FMN 200 uM
Reported property: apparent KD of K4 kissing-loop reporter (nM)

INSERT INTO results (seq_string, result) VALUES
  ('GCCAGGCAUCUGCAGAGUGAUGUUCAAAAGCGAGGACCGGUACGGCCGCCACUCGAAAGCAGAUGCCUGGGCGUACAAAGUACGC [idea]', 1140),
  ('GGGCUGGUGCUAGGAUAUGCGAUGAAUGCUCAGAAAACCUUGAGUCCGCAGUGAUGUUGCGGCACCGCAGAAGGAGCUAAGGCUC [Reorinraor]', 129),
  ('UGGCGUUGAACCGCCGAAUCGCUGUGAGAAGGAGCGGUAAAAUUGCCAGGUAGGUCGCUCACAGCUUCACAGUGAUGUUGUGGAA [Enxeisen]', 248),
  ('AUAGGAGUGAUGUUCCUUAGUUUCUCCGAUACCAGUAUGGAAACAUACCCUUGGCAGCGGGAGACCGCUGAUUAGGAAACUAGUC [Theophylline A K4 8]', 255),
  ('CCAACAACGAGUGAUGUUCGUUGAUCUGAAGGAGCGUCAAUAAUGACAGGUAGGUCGCAGAUAAUUGGAUAUAGGGCAAUAGCUC [Same State Arginine A GF13]', 109),
  ('AGCUCAGAGUGACUCGAUAAGAGUCACAAACGAGGACCGGUACGGCCGCCACUCGAAAUAACGAGAGUGAUGUUUUCGCUGAGCA [FiskerMod 6 - Jieux - Same State Tryptophan A]', 935);

* * *

Reported apparent KD of MS2 coat protein by item:
Tested on: MS2 coat protein
Assay: apparent KD of MS2 coat protein, switch OFF state (with FMN for OFF switches, without FMN for ON switches); designed switch direction (-1 OFF switch, 1 ON switch): 1; higher = weaker reporter binding
Details: FMN input: 0 or 200 uM; Eterna round: R93 (includes R88 designs)
Reported property: apparent KD of MS2 coat protein

INSERT INTO results (seq_string, result) VALUES
  ('GGAGCCGGUACUGAGGAUAUUCAUAUUAAAACAUGAGGAUCACCCAUGUAGGCCAGAAAGCCUUGGGAGAAGGCAGAUCGGCUCG [Bienuslete]', '126 nM'),
  ('CAUCACGCGCCUAAGGAUAUGUCUCACAAGACAUGAGGAUCACCCAUGUAGACUAAAUAAACGAUGCAGAAGGUGGAGCGCAUGC [Usrexe]', '149 nM'),
  ('GCCUAACAUGAGGAUCACCCAUGUAGUGGGUUGUUAGGAUAUGGACCACAAAACGCGGUACCAGAAGGAAUAGAAA [Atbima]', '538 nM'),
  ('AACAAUCUAUCUGAGGAUAUCAUGUCAAAGACAUGAGGAUCACCCAUGUAGCAGGAAACUGCUUAUGAGAAGGCAGAUAGAUUGA [SS2: 1114]', '450 nM'),
  ('CAUCAUGCGCCUAAGGAUAUGUCUCACAAGACAUGAGGAUCACCCAUGUAGAACAAAUAAGUGAUGCAGAAGGUGGAGCGCAUGC [Edcequed]', '137 nM'),
  ('AGGAAACAUGAGGAUCACCCAUGUAAAAAUAUGGGAGGAUAUACAAAGACGAAAGUCAAAGUAGAAGGCCUAAAAG [77%, Mat - Mod of Eli, 4]', '60.1 nM');

Data credit: the supplement of paper PMC9170038
